- study-system: human A2AR (Homo sapiens, UniProt P29274)
- Sequence (P29274 whole entry): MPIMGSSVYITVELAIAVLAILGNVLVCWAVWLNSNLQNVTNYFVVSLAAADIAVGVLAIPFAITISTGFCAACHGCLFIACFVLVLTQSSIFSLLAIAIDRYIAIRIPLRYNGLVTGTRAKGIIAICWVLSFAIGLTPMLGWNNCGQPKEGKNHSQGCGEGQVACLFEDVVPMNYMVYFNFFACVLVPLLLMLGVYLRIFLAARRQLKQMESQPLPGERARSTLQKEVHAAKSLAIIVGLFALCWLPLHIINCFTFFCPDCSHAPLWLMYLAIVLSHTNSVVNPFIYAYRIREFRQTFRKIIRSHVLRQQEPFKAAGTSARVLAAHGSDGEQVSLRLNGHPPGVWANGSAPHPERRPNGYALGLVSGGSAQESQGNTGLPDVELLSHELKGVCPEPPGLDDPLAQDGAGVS
- experiment-notes: Competitive radioligand binding assay, [3H] ZM 241385, membranes of HEK 293 cells stably expressing human A2AR
- condition-set: selectivity: Ki hA1 / Ki hA2A
hey, just use 1 if measured hA1/hA2A ratio is less than 6, otherwise -1

>>> df
                                   compound                              study_system  label_value
0  CCCCn1c(=S)sc2c(=N)n(NC(N)=O)cnc21 [Compound 17]  human A2AR (Homo sapiens, UniProt P29274)           -1

In the following, a different compound is considered.
stdin: Is it true that hA1/hA2A ratio reported for CCCn1c(=S)sc2c(=N)n(NC(N)=O)cnc21 [Compound 16] is less than 6?
stdout: -1
